B1: Transcription intermediary factor 1-beta, residues 620 to 671; numbered along this chain, Q13263 (parent)
chain: TLDDSATICRVCQKPGDLVMCNQCEFCFHLDCHLPALQDVPGEEWSCSLCHV

variants of: B1; experiment: abundance fitness (aPCA) (normalised: wild type 0, dead -1); higher = more abundant; growth selection in yeast, the domain comes from the species named; conditions: Homo sapiens
Decision: abundance fitness compared against -0.2; not below it gives rule met, below it gives rule not met.

| mutations | group |
| --- | --- |
| W45V | rule not met |

Problem: Does abundance fitness meet or surpass -0.2 for `G42K` ?
Solution: rule met

Problem: Reported abundance fitness reaches at least -0.2 for `A36W` ?
Solution: rule not met

Problem: In plain terms: is recorded abundance fitness at least -0.2 for `W45I` ?
Solution: rule not met

Problem: Dear colleague, could you confirm whether `M20R` has abundance fitness at or above -0.2?
Solution: rule met

Problem: Please tell me: is the variant `D17N` at or over -0.2 in terms of abundance fitness?
Solution: rule not met

Problem: Given `L49I` , state whether its abundance fitness is at least -0.2.
Solution: rule met

Problem: Confirm if abundance fitness reported for the variant `M20N` is -0.2 or above.
Solution: rule not met

# credit: the Human Domainome abundance scans (Beltran et al. 2025)
